- experiment-description: HILIC, Waters ACQUITY UPLC BEH Amide, 150 × 2.1 mm, 1.7 µm, 40 °C, 0.5 mL/min, estimated dead time 0.66 min; A: 5% water + 95% acetonitrile; B: 70% water + 30% acetonitrile + 10 mM ammonium formate, pH 6.5; gradient (min/%B) 0/0 2/0 20/70 23/70 24/0 31/0
- conditions-used: stereoisomer not certain
assay-metric: LC retention time
Answer format: value, then unit.

Use the examples below as a reference point.
compound | assay-metric | result
O=C(O)CCCC(=O)O [GLUTARATE] | LC retention time | 2 min
O=Cc1ccc(O)cc1 [4-HYDROXYBENZALDEHYDE] | LC retention time | 2.67 min
CN(C)C(N)=NCCCC(N)C(=O)O (stereo not given) [N,N-DIMETHYLARGININE] | LC retention time | 13 min
NCCC(=O)NC(Cc1cnc[nH]1)C(=O)O (stereo not given) [CARNOSINE] | LC retention time | 12.3 min
NCCc1ccc(O)c(O)c1 [DOPAMINE] | LC retention time | 8.68 min

Task: Item under review: Cc1ncc(CO)c(CO)c1O [PYRIDOXINE] . Reported LC retention time?
Output: 3.29 min

Task: Item under review: Nc1ncnc2c1ncn2C1OC(CO)C2OP(=O)(O)OC21 (stereo not given) [ADENOSINE 2',3'-CYCLIC PHOSPHATE] . Reported LC retention time?
Output: 6.69 min

Task: Item under review: CN(CC(=O)O)C(=N)N [CREATINE] . Reported LC retention time?
Output: 9.87 min

Task: Item under review: NC(Cc1ccc(O)cc1)C(=O)O (stereo not given) [TYROSINE] . Reported LC retention time?
Output: 9 min
